Quick record of pIC50 values for dopamine receptors (Rattus norvegicus).
Answers are plain numbers, as −log10 of the molar value.

Worked cases, pIC50 given:
>  <COMPOUND>
Cc1[nH]c2c(c1C)C(=O)C(CN1CCC3(CC1)C(=O)NCN3c1ccccc1)CC2 (centres unmarked) [Compound Id]

>  <pIC50>
10.11

$$$$
>  <COMPOUND>
CCc1c(C)[nH]c2c1C(=O)C(CN1CCC3(CC1)C(=O)NCN3c1ccccc1)CC2 (centres unmarked) [Compound Ia]

>  <pIC50>
10.02

$$$$
>  <COMPOUND>
O=C1c2c([nH]c3c2CCC3)CCC1CN1CCC2(CC1)C(=O)NCN2c1ccccc1 (centres unmarked) [Compound If]

>  <pIC50>
9.46

$$$$
>  <COMPOUND>
CCc1c(C)[nH]c2c1C(=O)C(CN1CCC3(CC1)C(=O)NCN3C1CCCCC1)CC2 (centres unmarked) [Compound Ie]

>  <pIC50>
10.09

$$$$

Let us examine a further case.
Query :: Param item = CC1NC(=O)C2(CCN(CC3CCc4[nH]c5c(c4C3=O)CCC5)CC2)N1c1ccccc1 (centres unmarked) [Compound Ib] ; retrieve measured pIC50.
Result :: 9.03
